Species: Homo sapiens
METHOD DESCRIPTION: Selectivity index, ratio of pIC50 of BRD4 BD1 (unknown origin) to pIC50 of BRD4 BD2 (unknown origin)
REPORTED METRIC: Ratio pIC50

Here's what some known entries look like.
{"columns": ["SMILES REPRESENTATION", "Ratio pIC50"],
 "data": [
  ["CCNC(=O)c1ccc(OCc2cccc(OC)c2)c(-c2cn(C)nn2)c1", 80],
  ["Cc1cc(-c2ccccc2OCc2ccccc2)on1", 3],
  ["CCNC(=O)c1cc(Cc2ccccc2OC)nc(-c2cn(C)nn2)c1", 200],
  ["CCNC(=O)c1ccc(O[C@@H](C)c2ccccc2)c(-c2cn(C)nn2)c1", 100],
  ["CNC(=O)c1ccc(O[C@@H](C)c2ccccn2)c(-c2cn(C)nn2)c1", 80]
]}

[I] C[C@H](Oc1ccc(C(=O)N[C@H]2[C@@H]3COC[C@@H]32)cc1-c1cn(C)nn1)c1ccccn1
[II] CCNC(=O)c1ccc(OCc2ccncc2)c(-c2cn(C)nn2)c1
[III] Cn1cc(-c2cc(C(=O)NCC[C@H]3CNCCO3)cc(Cc3ccccc3)n2)nn1
**Q:** Task field, ranking: reported Ratio pIC50, descending order. Note for the reader: the ranking is given by listing the labels in the order requested.
**A:** III, I, II

====

METHOD DESCRIPTION: Permeability of compound
Format: ADME
TEST CONDITIONS: not told; read-out: permeability
REPORTED METRIC: Papp (×10⁻⁶ cm/s)

Here's what some known entries look like.
{"columns": ["SMILES REPRESENTATION", "REPORTED METRIC", "OBSERVED MEASUREMENT"],
 "data": [
  ["Cn1cc(-c2cc(C(=O)NC3CCOCC3)cc(Cc3ccccc3)n2)nn1", "Papp", 27],
  ["Cn1cc(-c2cc(C(=O)NCCC[C@@]3(F)CCCNC3)cc(Cc3ccccc3)n2)nn1", "Papp", 2.3],
  ["C[C@H](Oc1ccc(C(=O)NC2CC2)cc1-c1cn(C)nn1)c1ccccn1", "Papp", 15],
  ["CNC(=O)c1ccc(O[C@@H](C)c2ccccn2)c(-c2cn(C)nn2)c1", "Papp", 7],
  ["CCNC(=O)c1ccc(OCc2ccccn2)c(-c2cn(C)nn2)c1", "Papp", 14],
  ["Cn1cc(-c2cc(C(=O)NCC3CCOCC3)cc(Cc3ccccc3)n2)nn1", "Papp", 22],
  ["CCNC(=O)c1ccc(OCc2ccc(OC)cc2)c(-c2cn(C)nn2)c1", "Papp", 39],
  ["CCNC(=O)c1cc(Cc2ccccc2OC)nc(-c2cn(C)nn2)c1", "Papp", 37],
  ["CCNC(=O)c1ccc(OCCc2ccccc2)c(-c2cn(C)nn2)c1", "Papp", 49],
  ["CCNC(=O)c1cc(Cc2ccc(F)cc2)nc(-c2cn(C)nn2)c1", "Papp", 33]
]}

[a] Cn1cc(-c2cc(C(=O)NCC[C@]3(F)CCCNC3)cc(Cc3ccccc3)n2)nn1
[b] C[C@H](Oc1ccc(C(=O)N[C@H]2CC[C@H](O)CC2)cc1-c1cn(C)nn1)c1ccccn1
**Q:** Which value of Papp is greater, the one for a or the one for b ? Lab log: write the label of the selected item as the result.
**A:** a
(a: 1.9 ×10⁻⁶ cm/s, b: 1.3 ×10⁻⁶ cm/s)
